# Tested on: Vero-E6
# assay_protocol: primary screen, phospholipidosis by LipidTOX staining; higher = more effect of the substance
# experimental_conditions: 10 µM
In all, about 5,400 compounds went through this assay and about 190 (3.5%) showed an effect of 50% or more. Only a selection was taken, and strong results are over-represented in it overall. Starred links: 1 amine or outer side, 2 acyl side, 3 side chain; linkers in the order of their positions; H or OH if unused. Positions of bridges follow the written chain, without caps; N, C: chain ends. Non-standard residues stand in square brackets, D forms with d. Residues, ends and D or L forms follow the SMILES beside them. *: point of attachment. X5 = NC1=N[C@@H](O)C[C@H]([C@H](N[*:1])C(=O)[*:2])N1; ΔAla(Z-3-ureido) = NC(=O)N/C=C(\N)C(=O)O; β3hOrn = NCCC[C@H](N)CC(=O)*; Dap = NC[C@H](N)C(=O)O
Quick list: result_ITMP per entry.
property_measured: result_ITMP (%)

- compound: "C[C@@H](Oc1cc(-c2cnn(C3CCNCC3)c2)cnc1N)c1c(Cl)ccc(F)c1Cl"
  property_measured: "result_ITMP"
  val: 75
- compound: "OCCN1CCN(CCCN2c3ccccc3Sc3ccc(C(F)(F)F)cc32)CC1"
  property_measured: "result_ITMP"
  val: 60.4
- compound: "CC#C[C@@H](CC(=O)[O-])c1ccc(OCc2cccc(-c3ccc(C(F)(F)F)cc3)c2)cc1"
  property_measured: "result_ITMP"
  val: 2.55
- compound: "OC[C@H]1O[C@@H](O[C@@H]2[C@H](O)[C@@H](O)[C@H](O[C@H]3[C@H](O)[C@@H](O)C(O)O[C@@H]3CO)O[C@@H]2CO)[C@H](O)[C@@H](O)[C@H]1O (stereo partly shown)"
  property_measured: "result_ITMP"
  val: 3.95
- compound: "CCSc1ccc2c(c1)N(CCCN1CCN(C)CC1)c1ccccc1S2"
  property_measured: "result_ITMP"
  val: 59.1
- compound: "CCC1=C[C@@H]2C[N@](C1)Cc1c([nH]c3ccccc13)[C@@](C(=O)OC)(c1cc3c(cc1OC)N(C)[C@H]1[C@@](O)(C(=O)OC)[C@H](OC(C)=O)[C@]4(CC)C=CCN5CC[C@]31[C@@H]54)C2"
  property_measured: "result_ITMP"
  val: 7.31
- compound: "C1Cc2[nH]nc(-c3nnn[nH]3)c2C1"
  property_measured: "result_ITMP"
  val: -1.64
- compound: "O=C(NC1CCN(CCc2c[nH]c3ccccc23)CC1)c1ccccc1"
  property_measured: "result_ITMP"
  val: 6.62
- compound: "O=C(NC1CCN(CCCCC2(C(=O)NCC(F)(F)F)c3ccccc3-c3ccccc32)CC1)c1ccccc1-c1ccc(C(F)(F)F)cc1"
  property_measured: "result_ITMP"
  val: 62.5
- compound: "CC(C)COCC(CN(Cc1ccccc1)c1ccccc1)N1CCCC1 (stereo not shown)"
  property_measured: "result_ITMP"
  val: 66.8
- compound: "CCCCOc1c(C(=O)c2c(F)cc(C)cc2F)cnc2[nH]ncc12"
  property_measured: "result_ITMP"
  val: 7.58
- compound: "Nc1nc(S)c2nc[nH]c2n1"
  property_measured: "result_ITMP"
  val: 26.6
- compound: "NCCC[C@H](N)CC(=O)N[C@H]1CNC(=O)[C@H]([C@H]2C[C@H](O)N=C(N)N2)NC(=O)/C(=C/NC(N)=O)NC(=O)[C@H](CO)NC(=O)[C@H](CO)NC1=O (β3hOrn-[Dap]SS[ΔAla(Z-3-ureido)][X5]; lactam 1-C)"
  property_measured: "result_ITMP"
  val: -3.72
- compound: "CN1[C@@H](CC(=O)c2ccccc2)CCC[C@H]1C[C@H](O)c1ccccc1"
  property_measured: "result_ITMP"
  val: 13.8
- compound: "CC(C)NCC(O)COc1ccc(CC(N)=O)cc1 (stereo not shown) [R4A_0002533_001 / SPE_K44993696]"
  property_measured: "result_ITMP"
  val: -2.42
- compound: "CC1(C)C(/C=C/C=C/C=C/C=C2/N(CCCCS(=O)(=O)[O-])c3ccc4ccccc4c3C2(C)C)=[N+](CCCCS(=O)(=O)[O-])c2ccc3ccccc3c21"
  property_measured: "result_ITMP"
  val: -0.75
- compound: "CCn1c2ccccc2c2cc(CNCc3ccccc3OC)ccc21"
  property_measured: "result_ITMP"
  val: 56.5
- compound: "CC1=CC(=O)[N-]S(=O)(=O)O1"
  property_measured: "result_ITMP"
  val: -5.65
- compound: "CCCCOc1ccc(C(=O)Nc2ccc(F)cc2F)cc1"
  property_measured: "result_ITMP"
  val: -8.12
- compound: "COc1cc(N)c(Cl)cc1C(=O)OCCN1CCCCC1"
  property_measured: "result_ITMP"
  val: -1.25
- compound: "CCCCCCCCCCCCCCCC(=O)OCCC1CCN(CCCN2c3ccccc3Sc3ccc(S(=O)(=O)N(C)C)cc32)CC1"
  property_measured: "result_ITMP"
  val: -5.2
- compound: "CC1(C)S[C@@H]2[C@H](NC(=O)Cc3ccccc3)C(=O)N2[C@H]1C(=O)[O-]"
  property_measured: "result_ITMP"
  val: -4.24
- compound: "C=CCN(C)CCCCCCOc1ccc(C(=O)c2ccc(Br)cc2)c(F)c1"
  property_measured: "result_ITMP"
  val: 92.9
- compound: "O=C(Nc1ncc(SCCN2CCCC2)s1)[C@]1(c2ccc(S(=O)(=O)C3CC3)cc2)C[C@H]1C1CCCCC1"
  property_measured: "result_ITMP"
  val: 55.8
- compound: "CN1CCN(CCCN2c3ccccc3Sc3ccc(S(=O)(=O)N(C)C)cc32)CC1"
  property_measured: "result_ITMP"
  val: 50.3
- compound: "CC1(C)[C@@H]2CC[C@@]1(C)C(=O)C2 [R4A_0000828_001 / SPE_K15714472]"
  property_measured: "result_ITMP"
  val: -1
- compound: "Cc1cc(/C=C2\\SC(=O)N(c3ccccc3)C2=O)c(C)n1-c1cccnc1"
  property_measured: "result_ITMP"
  val: -6.01
- compound: "Nc1ncnc2[nH]cnc12"
  property_measured: "result_ITMP"
  val: -2.75
- compound: "O=C(O)c1ccccc1-c1ccc(C(F)(F)F)cc1"
  property_measured: "result_ITMP"
  val: -4.47
- compound: "CN1CCC(=C2c3ccccc3CCc3sccc32)CC1"
  property_measured: "result_ITMP"
  val: 42.6
- compound: "Cc1onc(O)c1CC(N)C(=O)O (racemic) [R4A_0004356_001 / SPE_A34716233]"
  property_measured: "result_ITMP"
  val: 0.42
- compound: "C=C1CC[C@H](O)C/C1=C/C=C1\\CCC[C@]2(C)[C@@H]([C@H](C)CCCC(C)(C)O)CC[C@@H]12"
  property_measured: "result_ITMP"
  val: -0.38
- compound: "COC(=O)[C@@]12OC[C@]34[C@H]([C@@H](O)[C@@H]1O)[C@@]1(C)CC(=O)C(O)=C(C)[C@@H]1C[C@H]3OC(=O)[C@H](OC(=O)/C=C(\\C)C(C)C)[C@@H]24"
  property_measured: "result_ITMP"
  val: -3.12
- compound: "CC(COc1ccccc1)N(CCCl)Cc1ccccc1 (stereo not shown)"
  property_measured: "result_ITMP"
  val: 0.48
- compound: "C[C@@]12C(=O)OC(=O)[C@]1(C)[C@H]1CC[C@@H]2O1"
  property_measured: "result_ITMP"
  val: 7.41
- compound: "c1ccc(CN(CC2=NCCN2)c2ccccc2)cc1"
  property_measured: "result_ITMP"
  val: 16.9
- compound: "CCCC(CCC)C(=O)NCc1ccc2c(cnn2-c2ccccc2OC)c1"
  property_measured: "result_ITMP"
  val: 0.82
